pIC50: −log10 of the molar value. Structures can show the parent of a compound that is named as a salt.
The reader will find pIC50 measurements below, all made with Human LOXL2 (Homo sapiens (Human), UniProt Q9Y4K0).
Sequence (Q9Y4K0 26-774): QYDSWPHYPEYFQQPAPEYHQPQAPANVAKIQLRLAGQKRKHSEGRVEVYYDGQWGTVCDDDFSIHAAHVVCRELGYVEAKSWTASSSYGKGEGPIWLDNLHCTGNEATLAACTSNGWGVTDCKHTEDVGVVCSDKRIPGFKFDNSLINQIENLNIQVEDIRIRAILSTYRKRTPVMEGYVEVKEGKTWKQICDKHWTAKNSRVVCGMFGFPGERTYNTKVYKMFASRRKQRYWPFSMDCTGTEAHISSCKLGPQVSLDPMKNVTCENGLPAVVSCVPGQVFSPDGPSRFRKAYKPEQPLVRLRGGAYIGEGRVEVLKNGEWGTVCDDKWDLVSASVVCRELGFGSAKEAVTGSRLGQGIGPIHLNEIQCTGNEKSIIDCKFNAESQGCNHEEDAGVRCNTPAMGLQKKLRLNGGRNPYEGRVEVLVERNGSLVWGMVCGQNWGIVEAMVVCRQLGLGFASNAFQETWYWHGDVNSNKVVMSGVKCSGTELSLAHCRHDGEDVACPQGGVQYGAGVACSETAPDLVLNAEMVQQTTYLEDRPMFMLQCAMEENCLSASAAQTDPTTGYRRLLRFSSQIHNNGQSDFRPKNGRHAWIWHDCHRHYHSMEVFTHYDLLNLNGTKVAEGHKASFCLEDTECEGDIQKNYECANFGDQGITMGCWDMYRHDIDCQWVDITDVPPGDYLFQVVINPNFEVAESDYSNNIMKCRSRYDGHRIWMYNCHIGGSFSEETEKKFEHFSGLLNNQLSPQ
testReadout: pIC50

INSERT INTO results (compound, subjectoftest, testreadout, reported) VALUES
  ('COc1ccc2c(n1)c(-c1cccc(SC)c1)c(C)n2C/C(F)=C/CN [Compound 68, Dihydrochloride]', 'Human LOXL2 (Homo sapiens (Human), UniProt Q9Y4K0)', 'pIC50', '> 6.52'),
  ('Cc1c(-c2cccc(S(=O)(=O)N(C)C)c2)c2nc(N(C)C)ccc2n1C/C(F)=C/CN [Compound 105, Dihydrochloride]', 'Human LOXL2 (Homo sapiens (Human), UniProt Q9Y4K0)', 'pIC50', '> 6.52'),
  ('Cc1c(-c2cccc(S(=O)(=O)N(C)C)c2)c2cc(S(=O)(=O)N(C)C)ccc2n1C/C(F)=C/CN', 'Human LOXL2 (Homo sapiens (Human), UniProt Q9Y4K0)', 'pIC50', '> 6.52'),
  ('Cc1c(-c2cccc(S(=O)(=O)N(C)C)c2)c2cccc(C(=O)N(C)C)c2n1C/C(F)=C/CN', 'Human LOXL2 (Homo sapiens (Human), UniProt Q9Y4K0)', 'pIC50', '> 6.52'),
  ('Cc1c(-c2cncc(S(=O)(=O)N(C)C)c2)c2c(Cl)cccc2n1C/C(F)=C/CN', 'Human LOXL2 (Homo sapiens (Human), UniProt Q9Y4K0)', 'pIC50', '> 6.52'),
  ('Cc1c(-c2cccc(S(C)(=O)=O)c2)c2nc(CF)ccc2n1C/C(F)=C/CN [Compound 115, Dihydrochloride]', 'Human LOXL2 (Homo sapiens (Human), UniProt Q9Y4K0)', 'pIC50', '> 6.52'),
  ('Cc1c(-c2ccncc2)c2cc(Cl)ccc2n1C/C(F)=C/CN', 'Human LOXL2 (Homo sapiens (Human), UniProt Q9Y4K0)', 'pIC50', '> 6.52');

* * *

# subjectOfTest: Human LOXL2 (Homo sapiens (Human))
Counter-ions that a name gives are not always drawn.
The reader will find reported IC50 values listed item by item below.
testReadout: IC50

INSERT INTO results (compound, reported) VALUES
  ('CNS(=O)(=O)c1cncc(-c2c(C)n(C/C(F)=C/CN)c3ccc(Cl)cc23)c1', '< 300 nM'),
  ('Cc1c(-c2cccc(S(=O)(=O)N(C)C)c2)c2ccncc2n1C/C(F)=C/CN [Compound 32, Dihydrochloride]', '< 300 nM'),
  ('COC(=O)c1ccc2c(-c3cccc(S(=O)(=O)N(C)C)c3)c(C)n(C/C(F)=C/CN)c2c1', '< 300 nM'),
  ('Cc1cc(-c2c(C)n(C/C(F)=C/CN)c3ccc(S(C)(=O)=O)cc23)cc(C)n1', '< 300 nM'),
  ('N#CCCN [BAPN, β-aminopropionitrile, reference compound]', '< 1000 nM'),
  ('Cc1c(-c2cccc(S(=O)(=O)N(C)C)c2)c2ccc(C(=O)O)cc2n1C/C(F)=C/CN', '< 300 nM'),
  ('CN(C)S(=O)(=O)c1cncc(-c2c(Cl)n(C/C(F)=C/CN)c3ccccc23)c1', '< 300 nM'),
  ('Cc1c(-c2cccc(S(=O)(=O)N(C)C)c2)c2ncc(F)cc2n1C/C(F)=C/CN', '< 300 nM');
